experiment: in vitro; conditions: human
measured_quantity: CC50

Please look up its CC50: c1cc(CN2CCCNCCNCCCNCC2)ccc1CN1CCCNCCNCCCNCC1
> 10 µM

###

test: in vitro; details: human, pH 5.85
measured_quantity: CC50 at 4 h

Please look up its CC50 at 4 h: c1cc(CN2CCCNCCNCCCNCC2)ccc1CN1CCCNCCNCCCNCC1 [AMD 3100]
> 10 µM

###

test: in vitro; conditions: human, pH 6.5
measured_quantity: CC50 at 4 h

Please look up its CC50 at 4 h: c1cc(CN2CCCNCCNCCCNCC2)ccc1CN1CCCNCCNCCCNCC1 [AMD 3100]
> 10 µM

###

tested on: MAGI-R5 or HeLa CD4 LTR β-gal cells
measured_quantity: CC50

Please look up its CC50: Cc1ccc(-c2ccc3c(c2)C=C(C(=O)Nc2ccc(C[N+](C)(C)C4CCOCC4)cc2)CCC3)cc1 [TAK 779]
> 200 nM

###

system: HIV-1SKI; assay: CD4-dependent HIV transmission inhibition assay (cell-associated virus, GHOST cells); assay type: cell-based; settings: Human immunodeficiency virus 1, pH 5.85, Pre-incubation pH 5.85
measured_quantity: IC50 (nM)
Numbers only, in nM.

Please look up its IC50: c1cc(CN2CCCNCCNCCCNCC2)ccc1CN1CCCNCCNCCCNCC1 [AMD 3100]
6

###

tested on: HIV-1SKI; test: CD4-dependent HIV transmission inhibition assay (cell-associated virus, GHOST cells); type: cell-based; conditions: Human immunodeficiency virus 1, pH 6.5, Pre-incubation pH 6.5
measured_quantity: IC50 (nM)
Answers are plain numbers, in nM.

Please look up its IC50: c1cc(CN2CCCNCCNCCCNCC2)ccc1CN1CCCNCCNCCCNCC1
80

###

assay: in vitro; conditions: human, pH 4
measured_quantity: CC50 at 4 h (µM)
Numbers only, in µM.

Please look up its CC50 at 4 h: c1cc(CN2CCCNCCNCCCNCC2)ccc1CN1CCCNCCNCCCNCC1
4.03
